Read-out: Protein phosphatase 2A (PPP2R4), PTPA (gene 5524)
Assay: LTEA_HepaRG_PPP2R4: Life Technologies and Expression Analysis (LTEA) Assay for Protein phosphatase 2A (PPP2R4) using HepaRG (AID 2283522)
Conditions: mRNA level, 48 h; actives raise or lower the signal
Calls of active or inactive are those of the source. The calls were made as follows: active = hit-call score of the fitted dose curve at least 0.9, where 1 is the maximum; inactive = score below 0.9.
Possible outcomes: active, inactive

- OCCCl: inactive
- CC(C)(OOC(C)(C)c1ccccc1)c1ccccc1: inactive
- O=[N+]([O-])c1ccc(Oc2ccc(Cl)cc2Cl)cc1: inactive
- C[N+](C)(C)CC1CO1 (stereo not drawn): inactive
- CC(C)N(Cc1ccccc1)C(=O)C(C)(C)C: inactive
- CCC(C)c1ccc(O)cc1 (stereo not drawn): inactive
- Cc1cc(N=Nc2ccccc2C)ccc1N: active
- O=C(Oc1ccc(Br)cc1)N1CCN2CCC1CC2: inactive
- CC(C)(C)OOC(=O)c1ccccc1: inactive
- [O-][Cl+]O: inactive
- CCCCCCCCn1sccc1=O: inactive
- Cc1ccc(N=C=O)cc1N=C=O: inactive
- Nc1ccc(Cl)cc1N: active
- c1ccc2c(c1)oc1ccccc12: inactive
- CN(C)c1ccccc1: inactive
- CCCSC(=O)N(CCC)CCC: inactive
- Clc1ccc(C(c2ccc(Cl)cc2)C(Cl)Cl)cc1: inactive
- Brc1ccc(Oc2ccccc2)cc1: inactive
- O=Cc1ccco1: inactive
- CCCCCCCCOC(=O)c1ccc(C(=O)OCCCCCCCC)c(C(=O)OCCCCCCCC)c1: inactive
- CS(=O)(=O)NC(=O)c1cc(Oc2ccc(C(F)(F)F)cc2Cl)ccc1[N+](=O)[O-]: inactive
- CC(C)(C)C(O)(CCc1ccc(Cl)cc1)Cn1cncn1 (stereo not drawn): active
- Nc1ccc(Cc2ccc(N)cc2)cc1: inactive
- OCCCBr: inactive
- O=P(OCCCl)(OCCCl)OCCCl: active
- Oc1ccccc1Cl: inactive
- O=C(N[C@H](c1ccccc1)[C@@H]1CN2CCC1CC2)c1c(Cl)ccc(C(F)(F)F)c1Cl: active
- Cc1ccc([N+](=O)[O-])cc1: inactive

* * *

Assay: APR_HepG2_p53Act_24hr: Apredica 24-hour HepG2 Assay for p53 Activation (AID 2282913);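 also: p53 protein immunofluorescence averaged per cell in HepG2 with Hoechst nuclei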
Conditions: high-content imaging, actives raise or lower the signal
The source made the active and inactive calls. Rule for the calls: active = hit-call score of the fitted dose curve at least 0.9, where 1 is the maximum; inactive = score below 0.9.
Possible outcomes: active, inactive

* Clc1ccc(Cl)c(Cl)c1 | inactive
* [Cl-].[Cl-].[Hg+2] | active
* Cc1ccc([N+](=O)[O-])cc1 | inactive
* Oc1ccc2ccc3cccc4ccc1c2c34 | active
* Cc1ccc(N)cc1 | inactive
* N#CC(Br)(Br)C(N)=O | inactive
* ClC1=C(Cl)C2(Cl)C3C(Cl)C=CC3C1(Cl)C2(Cl)Cl (stereo not given) | active
* c1ccc2c(c1)oc1ccccc12 | inactive
* Clc1ccc(C(c2ccc(Cl)cc2)C(Cl)Cl)cc1 | active
* COC(=O)c1ccccc1N | inactive
* c1ccc(N=Nc2ccccc2)cc1 | inactive
* Cc1ccc(N)c(N)c1 | inactive
* Nc1ccc(Cc2ccc(N)cc2)cc1 | inactive
* C[N+](C)(C)CC1CO1 (stereo not given) | inactive
* CCCCCCCCn1sccc1=O | active
* O=C1CCCO1 | inactive
* O=P(OCCCl)(OCCCl)OCCCl | inactive
* CC(C)(C)C(O)(CCc1ccc(Cl)cc1)Cn1cncn1 (stereo not given) | active
* [As]#[In] | inactive
* COP(=S)(OC)SCN1C(=O)c2ccccc2C1=O | inactive
* CCC[CH2][Sn]([Cl])([CH2]CCC)[CH2]CCC | active
* CCC12COCN1COC2 | active
* CC(C)(O)c1cnn2c(-c3ccc(F)c(-c4c(F)cccc4C#N)c3)cnc2n1 | inactive
* Nc1ccc(N=Nc2ccccc2)cc1 | inactive
* Cc1cc(N=Nc2ccccc2C)ccc1N | inactive
* CC(C)(C)OOC(=O)c1ccccc1 | active
* CCN(CC)N=O | inactive
* CN(C)c1ccccc1 | inactive
* [O-][Cl+]O | inactive
* c1ccc(NNc2ccccc2)cc1 | active
* CCN(CC)CCO | inactive
* CNC(=O)Oc1cccc2c1OC(C)(C)C2 | inactive
* Nc1cc(Cl)cc(C(=O)O)c1Cl | inactive
* CCCCCOC(=O)c1ccccc1C(=O)OCCCCC | inactive
* CS(=O)(=O)NC(=O)c1cc(Oc2ccc(C(F)(F)F)cc2Cl)ccc1[N+](=O)[O-] | inactive
